This listing pairs compounds with measured viability, T/C.
- Tested on: 324938-238-R-J1-PDC complex spheroids viability;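 also: viability read after seven days of drug exposure; 100% = DMSO vehicle control wells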
- assay_procedure: Anticancer human tumor 324938-238-R-J1-PDC patient-derived bladder carcinoma cell line growth inhibition [CLK]
- condition_info: second compound 3.16 µM; first compound 0.0316 µM; stronger effect = lower value
- Source text: A high-throughput screen of multi-cell type tumor spheroids was designed to identify active combinations of […] and targeted small molecules. Complex spheroids include a stromal component modeled by human endothelial cells (HUVEC) and fibroblasts modeled by human mesenchymal stem cells (MSCs). […] Compounds. […] If the clinical Cmax for an agent had not been determined, the highest concentration tested was 10 microM. […]
Lab book: enter the figure in %, no units written.

Answered examples (3):
compound	reported_property	reported_measurement
COc1cccc2c1C(=O)c1c(O)c3c(c(O)c1C2=O)CC(O)(C(=O)CO)CC3OC1CC(N)C(O)C(C)O1 (stereo unspecified) + CN1CCN(c2cc(C(=O)Nc3cc4cc(-c5cnn(C)c5)ccc4cn3)ccn2)CC1	viability, T/C	0.12
COC1C=CCC(C)C(C)S(=O)(=O)NC(=O)c2ccc3c(c2)N(CC2CCC21)CC1(CCCc2cc(Cl)ccc21)CO3 (stereo unspecified) + CNC(=O)c1ccc(Nc2nc(OC3CCCC3)c3c(-c4ccc5nc(C)oc5c4)c[nH]c3n2)c(OC)c1	viability, T/C	16.1
CCN1CCN(Cc2ccc(Nc3ncc(F)c(-c4cc(F)c5nc(C)n(C(C)C)c5c4)n3)nc2)CC1 + CN1CCN(c2cc(C(=O)Nc3cc4cc(-c5cnn(C)c5)ccc4cn3)ccn2)CC1	viability, T/C	0.19

Requested read-out: viability, T/C. Entry: CCCS(=O)(=O)Nc1ccc(F)c(C(=O)c2c[nH]c3ncc(-c4ccc(Cl)cc4)cc23)c1F + CN1CCN(c2cc(C(=O)Nc3cc4cc(-c5cnn(C)c5)ccc4cn3)ccn2)CC1
0.52
